Overview of reported binding signal across a group of binders:
Target: T1, RBFOX1 RRM (Homo sapiens, UniProt Q9NWB1 109-208)
T1 sequence: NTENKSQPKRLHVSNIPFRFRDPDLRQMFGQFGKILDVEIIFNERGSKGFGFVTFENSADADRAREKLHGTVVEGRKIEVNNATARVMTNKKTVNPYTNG
Assay: EMSA; HiTS-Eq, 1 nM pool, 10 min; buffer printed only for the single-RNA assays: 10 mM Tris pH 7.5, 150 mM NaCl, 3.4 mM EDTA, 0.001% NP-40, 30 C
Settings: tags: His6 N-terminal (pET28a); label: 5' 32P
Over roughly 16,000 sequences, “ka relative to ugcaugu” has its median near 0.0091; the highest 2% begin near 0.032. Many of the other results were omitted from the sample, so the highest values are more common in it than they were.

binder="GUCAUGA (DNA:RNA) RNA: GGGAGACCGGAAUUCAGAUUGUCCGUCAUGAUUAAAUCCCGUCGUAGCCACCA DNA 1: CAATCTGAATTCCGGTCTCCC DNA 2: TGGTGGCTACGACGGGATT" quantity_name="binding signal" reading="0.0126 KA relative to UGCAUGU"
binder="GUAUGAC (DNA:RNA) RNA: GGGAGACCGGAAUUCAGAUUGUCCGUAUGACUUAAAUCCCGUCGUAGCCACCA DNA 1: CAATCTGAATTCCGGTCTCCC DNA 2: TGGTGGCTACGACGGGATT" quantity_name="binding signal" reading="0.0127 KA relative to UGCAUGU"
binder="GCAUGGA (DNA:RNA) RNA: GGGAGACCGGAAUUCAGAUUGUCCGCAUGGAUUAAAUCCCGUCGUAGCCACCA DNA 1: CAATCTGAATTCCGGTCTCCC DNA 2: TGGTGGCTACGACGGGATT" quantity_name="binding signal" reading="0.0333 KA relative to UGCAUGU"

API: the following record is the query input.
Data request: Can you look up the measured binding signal of GGCAUAA (DNA:RNA) RNA: GGGAGACCGGAAUUCAGAUUGUCCGGCAUAAUUAAAUCCCGUCGUAGCCACCA DNA 1: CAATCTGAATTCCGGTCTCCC DNA 2: TGGTGGCTACGACGGGATT for me?
Data returned: 0.00272 KA relative to UGCAUGU
